assay: soluble on expression in E. coli; label from the status in PepcDB or PDB records
test readout: soluble on expression in E. coli

- biosequence: "MSLSRPQFDPSAYAAQLEDKKSRLAGLLAPFAAPAPEVFESPREHYRLRAEFRLWRETGNEKRHYAMFEQGDKHTPILLEDFPIASRRINELMPRLKAAWADPALGFKLFQVEFLTTLAGDALITLCYHRPIDDAWRQAAEKLAAELGVNLVGRSRGKRIVVGRDYVEEELSVAGRRFRYRQPEGAFTQPNGEVNQKMLGWAYEALGQRDDDLLELYCGNGNFTLPLATRVRKVLATEISKSSVNAALANLADNAVDNVSLVRLSAEELTQALNEVRPFRRLADIDLKSYAFGSVFVDPPRAGMDPDTCELARRFERILYISCNPETLAQNIAQLHDTHRISRCALFDQFPYTHHMESGVLLEEGHHHHHH"
  recorded measurement: "soluble"
- biosequence: "MGHHHHHHENLYFQSHLYFQSHMTDCEFGYIYRLAQDYLQCVLQIPQPGSGPSKTSRVLQNVAFSVQKEVEKNLKSCLDNVNVVSVDTARTLFNQVMEKEFEDGIINWGRIVTIFAFEGILIKKLLRQQIAPDVDTYKEISYFVAEFIMNNTGEWIRQNGGWENGFVKKFEPK"
  recorded measurement: "soluble"

---

assay: soluble on expression in E. coli; label from the status in PepcDB or PDB records
test readout: soluble on expression in E. coli

- biosequence: "MATRPKTIWESFLSPVVRFLMDEDKWRRYAQSIDWEKESDRFRRTDVIIPSYYTSQNFHGIEGGYLNSSAAVTYDPITEYVLPPNETLVRQALIDGVKVQPRRILDLGCGTGSTTLMLKQAFPQADVIGLDLSPYMLVRAEDKARTADLDISWRHGNAEKTSFPNASFDLVTTSLLFHETPVEVSQTILQECFRLLVAGGQVIILDGNQKSLRQLNWLNDIFEEPYIREYAADNLDARMGAAGFVGVQTEDLWLIHQVTSGIKPILATDTNQIKDRQYMPAIDNNNLEGLESPAFGIVALEHHHHHH"
  test readout: "soluble on expression in E. coli"
  recorded measurement: "not soluble"
- biosequence: "MGSDKIHHHHHHMPTVHDLDTPSILIDAARAEANIARAQAHADKNGLKLRPHIKTHKLPYWAKKQVAAGAVGITCQKIGEAEVMTDAGLSDIFLPYNILGRAKLQRLKTLHGRVTLSVTSDSMETLEGLAATFTDAGHPLQVLVECDTGMGRCGVQTADQAVALARLIDKAGGLTFGGLMTYPAAGRAAEAEAWLANAKQALAASGLACERISSGGTPDMWRSGEDSVVTEYRPGTYIYLDRYQVAKGVGTLDDCALTVLATVVSHPTATRAILDSGSKALSSDTLGLKDFGELLGAPDARVTGLSEEHGTVTLSGDAKLRIGERVRVVPDHCCVVTNLFNEVNLIDGETVLETLPVAARGKMG"
  test readout: "soluble on expression in E. coli"
  recorded measurement: "not soluble"
- biosequence: "MSLGYWGVMGNCFRRLSLFGQPTQAKYEMLCSSDDLETEELTFFLDMTYKDFGVYQNDIISHQKDTETMKTLLGLLPMYKKTKLRHTVMERCLSNCPNHVKDALCVELMKAEKILQTMDVVFMKTLIGEFSMCTENLNQLLNKFATDQSTLSDVEKINSLIEIDGENSKRLLVELDPILHEETGLYQALPNVVTEAPSEKVKSIRVESEGESV"
  test readout: "soluble on expression in E. coli"
  recorded measurement: "not soluble"
- biosequence: "MLFNLLGKPLKICGCSPRTGWYLDGYCKTDQSDLGNHSICSVVTDTFLKYTKSQGNNLIDPNLLMEFPGLKAGDHWCLCAERWEQARIDGVAPPIIIESTNLSATQVIPLNILKSFAFEII"
  test readout: "soluble on expression in E. coli"
  recorded measurement: "not soluble"
- biosequence: "MNNRSAVRILRLPAVIQKTGMARATIYDWLNPKSPRYDATFPKKRMLGVKSVGWIEAEIDEWLSQRCKLI"
  test readout: "soluble on expression in E. coli"
  recorded measurement: "soluble"
- biosequence: "MSHGSGLVRTTCSSGGALGPAQPSEGLLDRVYPLTHGALFKVAQMGYRLLVAGFQNCRGIDIY"
  test readout: "soluble on expression in E. coli"
  recorded measurement: "not soluble"

Just so you know, measured soluble on expression in E. coli for MGHHHHHHSHMAFRQPNTKELKVIRKALSYYGSGDFLSHYALLVKEGEKKEVYGVSKELYGVIGELNPHYAGVKIGEVGRRFRFSLEGTFWLLRNSRNRVWVNERGEMLFLYGRDIFAGSVERASEFGENSIVFVCNRFDDVLGIGRSRHSSDELSNLPEDKVFVENLVDRGEYLRH came out at soluble

Just so you know, measured soluble on expression in E. coli for MRILADENIPVVDAFFADQGSIRRLPGRAIDRAALAEVDVLLVRSVTEVSRAALAGSPVRFVGTCTIGTDHLDLDYFAEAGIAWSSAPGCNARGVVDYVLGCLLAMAEVRGADLAERTYGVVGAGQVGGRLVEVLRGLGWKVLVCDPPRQAREPDGEFVSLERLLAEADVISLHTPLNRDGEHPTRHLLDEPRLAALRPGTWLVNASRGAVVDNQALRRLLEGGADLEVALDVWEGEPQADPELAARCLIATPHIAGYSLEGKLRGTAQIYQAYCAWRGIAERVSLQDVLPETWLAGLQLNPGCDPAWALATLCRAVYDPRSDDAAFRRSLTGDSATRRAAFDALRKHYPPRREITGLRVATGGQAELQRVVRALGAQLV came out at soluble

Just so you know, measured soluble on expression in E. coli for MGSDKIHHHHHHMAKTNPGRFFEDYTVGQTLHHAVPRTVTNGERALYHALYPARHALYSSDAFAQSCGLPGSPIDDLAAFHVVFGKTVPDVSLNAVANLGYAEGRWLKPVYAGDTLRSVSEVIGLKQNSNGKTGVVYVRTRGLNQRDETVMEYVRWVMVRKRDLDAPAPEIVVPELKKALAPNDLVVPEGLDFTAYDFALAGEPHRWGDYAVGETIDHVDGVTVEEAEHMLATRLWQNTAKVHFDLTFRPDGRLIYGGHVISMARALSFNGLANAQIIVGLNGGAHANPCFAGDTIKAWTEVLDKAETAAPGVGALRLRLVATKGGAPFALHGEDGKYLPEVLLDLDYWVLMPK came out at not soluble

Just so you know, measured soluble on expression in E. coli for MNQTLLSSFGTPFERVENALAALREGRGVMVLDDEDRENEGDMIFPAETMTVEQMALTIRHGSGIVCLCITEDRRKQLDLPMMVENNTSAYGTGFTVTIEAAEGVTTGVSAADRITTVRAAIADGAKPSDLNRPGHVFPLRAQAGGVLTRGGHTEATIDLMTLAGFKPAGVLCELTNDDGTMARAPECIEFANKHNMALVTIEDLVAYRQAHERKAS came out at soluble

Just so you know, measured soluble on expression in E. coli for DEILIDPHAVLGPVDPQLMNYPAPSILKVVEKKEPKDIDDKTLIMADIAEKAINQVRETVFNLLKDKMDEEKAREVAKILTEGRWTHDYPLTVEELRQLGLKVSTDVPEEVYELMELYPQPMMQRHPGVEFVPSPPKGEKPSFK came out at not soluble

Just so you know, measured soluble on expression in E. coli for SLSHGKGTDMLPEIAAAVGFLSSLLRTRGCVSEQRLKVFSGALQEALTEHYKHHWFPEKPSKGSGYRCIRINHKMDPIISRVASQIGLSQPQLHQLLPSELTLWVDPYEVSYRIGEDGSICVLYEEAPLAASCGEG came out at soluble

Just so you know, measured soluble on expression in E. coli for MSTNPGPAEGANQVMAQEHSAGAVQFTAHNVRLDDGTLTIPESSRTLDESSWFISARGILETVFPGDKSHLRLADVGCLEGGYAVGFARMGFQVLGIEVRELNMAACNYIKSKTNLPNLRFVHDNALNIANHGLFDTVFCCGLFYHLENPKQYLETLSSVTNKLLILQTHFSIINRSDKWLRLPTTARQLTDRLLRRPAPVKFMLSAPTEHEGLPGRWFTEFSDDRSFGQRDTAKWASWDNRRSFWIQREHLLQAIKDVGVDLVMEEYDNLEPSIAESLLGGSYAANLRGTFIGIKTR came out at soluble

Just so you know, measured soluble on expression in E. coli for MSLDSSMKISKVDNIGNHEDIEVNNAEIALSLASQMVGSGEEVVSMSIKYSKERVAFGKPIGSYQAIKHRVVNDAIDVELARSLILEAAENIKYAWIAKDLANKKIPKAILSGIQVHGGIGFTDDLDIHLHLRRALTLSKLYNSKVNISEFLQPIEGHHHHHH came out at not soluble
